B1: library; a variant is named by its letters at N, in order (parent)
chain: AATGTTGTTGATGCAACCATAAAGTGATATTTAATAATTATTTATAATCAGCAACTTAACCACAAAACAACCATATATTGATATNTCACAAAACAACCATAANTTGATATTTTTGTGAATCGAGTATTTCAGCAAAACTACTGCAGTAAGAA

variants of: B1; assay: relative integration efficiency (T-LR orientation) vs wild-type transposon end (log2 (normalized fold change)); transposon end mutated: left end; higher = more efficient transposition; details: with VchCAST RNA-guided transposition machinery (E. coli BL21(DE3) host, lacZ target)
Measured relative integration efficiency (log2) values are reported for all entries that follow.

VARIANT DESCRIPTION	REL	relative integration efficiency (log2)
CG C49G A50T	=	-0.94
TA G24A T30A T76A T78A T84A C87A T104G T113A	=	0.368
CG A1T A2T T3A G4C	=	0.144
CG A90G	=	-0.331
CG T5A T6A	<	-10
CG A15T A69T A95T	=	-1.55
CG A58T A59T	=	0.226
CG A44C	=	-0.0239
CA A16C G24T T30A T104G T113A	=	-0.245
TA A22T G24T T31C A33C T76A T78G C87A T104A T110A T113A	=	-0.444
CG T112G T113G T114G G115T	=	-0.51
TA A16C G24T T30A T76A T78G C87A T104G T113A	=	-0.0106
CG T35G	=	0.136
CG C68G A69T	=	-0.877
CG A53C A54C	=	0.297
CG A119C T120G	=	-0.429
CG G24C T25A G26C A27T	=	-2.36
CG T82G	=	-0.227
TA A22T G24T T31C A33C A70C T76A T84A C87A T104G T113A	=	-0.566
TA A23G G24T A33T T76A T78A T84A C87A T104A T110A T113A	=	0.471
CG C63G A64T	=	0.148
TA G24A T30A T76A T78A T84A C87A T104A T110A T113A	=	0.184
CG A66C A67C	=	-0.404
CG G80C	=	-1.47
